Each entry below lists one item and its recorded kon value.
experimental target: T1, C-terminal truncated RSV F protein (secreted, from recombinant baculovirus) (respiratory syncytial virus, UniProt P03420 26-524)
T1 construct: also called immobilized F protein
T1 sequence (P03420 26-524): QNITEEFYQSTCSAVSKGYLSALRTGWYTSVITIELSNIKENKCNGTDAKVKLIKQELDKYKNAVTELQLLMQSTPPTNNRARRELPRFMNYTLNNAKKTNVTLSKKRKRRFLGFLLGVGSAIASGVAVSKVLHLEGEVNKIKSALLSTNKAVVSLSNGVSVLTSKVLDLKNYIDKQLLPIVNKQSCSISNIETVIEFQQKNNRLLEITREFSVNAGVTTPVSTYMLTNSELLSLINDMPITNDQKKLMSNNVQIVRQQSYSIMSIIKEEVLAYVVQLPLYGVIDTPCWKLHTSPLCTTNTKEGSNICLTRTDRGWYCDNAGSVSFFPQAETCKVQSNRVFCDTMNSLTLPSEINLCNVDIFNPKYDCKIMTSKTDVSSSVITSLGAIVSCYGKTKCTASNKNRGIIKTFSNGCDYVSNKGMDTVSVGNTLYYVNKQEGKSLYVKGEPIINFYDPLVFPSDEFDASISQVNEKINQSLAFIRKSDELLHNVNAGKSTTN
assay text: SPR (BIAcore), F protein amine-coupled, Mab injected at 25-300 nM
Please respond with the number in M⁻¹ s⁻¹ and leave the unit unwritten.

In the examples that follow, each entry is paired with its recorded kon.
humanized 1308F (CDR-grafted anti-RSV F antibody, human IgG1/kappa) (antibody, V domains shown, also called H1308F; Hu1308F) VH: QVQLVQSGAEVKKPGASVKVSCKASGFNIKDYYIYWVRQAPGQGLEWIGWIDPENGNTVFDPKFNGRVTMTRDTSTSTVYMELSSLRSEDTAVYYCAYYGTSSFDFWGQGTTLTVSS VL: DIQMTQSPSTLSASVGDRVTITCKASQDINRYLNWYQQKPGKAPKLLIYRANRLVDGVPSRFSGSGSGTEFTLTISSLQPDDFATYYCLQFHEFPYTFGGGTKLEIL | 22000
murine monoclonal antibody MAb 1129 (antibody, V domains shown, also called M1129) VH: QVELQESGPGILQPSQTLSLTCSFSGFSLSTSGMSVGWIRQPSGEGLEWLADIWWDDKKDYNPSLKSRKTISKDTSSNQVFLKITGVDTADTATYYCARSMITNWYFDVWGAGTTVTVSS VL: DIQLTQSPAIMSASPGEKVTMTCSASSSVGYMHWYQQKSSTSPKLWIYDTSKLASGVPGRFSGSGSGNSYSLTISSIQAEDVATYYCFQGSGYPFTFGGGTKLEIK | 35000

## Task Assign kon to the following record: murine monoclonal antibody MAb 1308F (antibody, V domains shown, also called M1308F; Mu1308F) VH: EVQKQQSGAELVRPGALVKLSCKASGFNIKDYYIYWVKQRPEQGLEWIGWIDPENGNTVFDPLFQGKASITSDTSSNTAYLQLSSLTSEDTAVYYCAYYGTSSFDFWGQGTTLTVSS VL: DIKMTQSPSSMYVSLGERVTITCKASQDINRYLNWFQQKPGKSPKTLIHRANRLVDGVPSRFSGSGSGQEYSLTISSLEFEDMGIYYCLQFHEFPYTFGGGTKLEIL
## Result 35000

## Task Input humanized 1129 (CDR-grafted anti-RSV F antibody, human IgG1/kappa) (antibody, V domains shown, also called H1129; Hu1129) VH: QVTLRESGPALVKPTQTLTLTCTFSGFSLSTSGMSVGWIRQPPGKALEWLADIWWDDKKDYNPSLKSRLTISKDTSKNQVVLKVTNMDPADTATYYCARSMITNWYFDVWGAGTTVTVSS VL: DIQMTQSPSTLSASVGDRVTITCKCQLSVGYMHWYQQKPGKAPKLWIYDTSKLASGVPSRFSGSGSGTEFTLTISSLQPDDFATYYCFQGSGYPFTFGGGTKLEIK , output reported kon.
## Result 49000
